For each of the variants below, state its polymerase ribozyme fitness (log ratio).
B1: TPR t1 (parent)
chain: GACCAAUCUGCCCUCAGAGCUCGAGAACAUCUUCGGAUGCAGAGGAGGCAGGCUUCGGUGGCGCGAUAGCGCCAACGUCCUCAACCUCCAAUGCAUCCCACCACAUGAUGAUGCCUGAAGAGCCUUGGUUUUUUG

- Variants of: B1
- EXPERIMENTAL PROTOCOL: polymerase ribozyme fitness, log enrichment relative to wild type (log ratio); higher = more active; in vitro selection for triplet polymerase activity

stdin: Name the recorded polymerase ribozyme fitness (log ratio) of the variant listed here: A46G A95U A105U U109A
stdout: -6.27

stdin: Name the recorded polymerase ribozyme fitness (log ratio) of the variant listed here: C22U C72G C82A
stdout: -5

stdin: Name the recorded polymerase ribozyme fitness (log ratio) of the variant listed here: C4U C13A A46U G52U C73A
stdout: -4.74

stdin: Name the recorded polymerase ribozyme fitness (log ratio) of the variant listed here: A16C C56A C97G
stdout: -5.42

stdin: Name the recorded polymerase ribozyme fitness (log ratio) of the variant listed here: C88U C89A C115U G117C U126A
stdout: -3.5

stdin: Name the recorded polymerase ribozyme fitness (log ratio) of the variant listed here: A50U C104U
stdout: -0.896

stdin: Name the recorded polymerase ribozyme fitness (log ratio) of the variant listed here: C22U A43G G61U C115A
stdout: -5.75

stdin: Name the recorded polymerase ribozyme fitness (log ratio) of the variant listed here: C11G C49A G61A G120U
stdout: 2.28

stdin: Name the recorded polymerase ribozyme fitness (log ratio) of the variant listed here: G36C G44C C73U G110C C124U U125A
stdout: -4.74

stdin: Name the recorded polymerase ribozyme fitness (log ratio) of the variant listed here: U7G A46C A68C C70U C97U G120U G127U
stdout: -5.43

stdin: Name the recorded polymerase ribozyme fitness (log ratio) of the variant listed here: G57A C76A
stdout: -0.895

stdin: Name the recorded polymerase ribozyme fitness (log ratio) of the variant listed here: C64U C85A
stdout: -3.12

stdin: Name the recorded polymerase ribozyme fitness (log ratio) of the variant listed here: C3U U7G A84U C101U G110U U125A
stdout: -3.16

stdin: Name the recorded polymerase ribozyme fitness (log ratio) of the variant listed here: C72A A75C
stdout: -0.344

stdin: Name the recorded polymerase ribozyme fitness (log ratio) of the variant listed here: C8U G52U A105G
stdout: -3.89

stdin: Name the recorded polymerase ribozyme fitness (log ratio) of the variant listed here: A5G C11A U81C
stdout: -1.86

stdin: Name the recorded polymerase ribozyme fitness (log ratio) of the variant listed here: U14G A50U G61C C86A
stdout: -4.54

stdin: Name the recorded polymerase ribozyme fitness (log ratio) of the variant listed here: C3U G69C C88G U96G
stdout: -2.75

stdin: Name the recorded polymerase ribozyme fitness (log ratio) of the variant listed here: A27U C49A C56U C62U U87G G113C
stdout: -6.58

stdin: Name the recorded polymerase ribozyme fitness (log ratio) of the variant listed here: C8G C89U
stdout: -0.514

stdin: Name the recorded polymerase ribozyme fitness (log ratio) of the variant listed here: A18C C20U G110C
stdout: -6.35
